Record form. Attribute: Regrowth (fresh weight mg). Fill in for each entry.
test system: ACCase inhibitor resistant rice seeds (ML0831265-01493 (ATCC deposit PTA-12933, mutation G2096S)); experiment: Safener seed treatment with propaquizafop or quizalofop: regrowth of resistant rice; format: in vivo; details: propaquizafop, safener seed treatment 1 g/kg of seed
Quick note: give the figure in mg, leave out the unit.

Data request: I'd like to know its Regrowth (fresh weight mg). The compound in question is O=C(O)C1=NOC(c2ccccc2)(c2ccccc2)C1 [Isoxadifen, isoxadifen]
Data returned: 170

Data request: Same thing, different compound: Clc1cc(Cl)nc(-c2ccccc2)n1 [Fenclorim, fenclorim]
Data returned: 195

Data request: // same read-out, input: CC1COc2ccccc2N1C(=O)C(Cl)Cl (centres unmarked) [Benzacor, benoxacor]
Data returned: 107

Data request: Cool, now O=C(O)COc1ccc(Cl)c2cccnc12 [Cloquinoce, cloquintocet]
Data returned: 342

Data request: Same lookup for O=C(C(Cl)Cl)N1CCOC12CCCCC2 [AD-67] , please.
Data returned: 113

###

Would you kindly list Regrowth (fresh weight mg) for each of these compounds?
system: mutant rice (ML0831265-01493, ATCC deposit PTA-12933, mutation G2096S); experiment: Tank mixes of safeners with propaquizafop or quizalofop: regrowth of mutant rice; assay type: in vivo; details: tank mix with propaquizafop 50 g/ha, safener 12.5 g/ha
Number in mg, nothing else.

Data request: Requested field: Regrowth (fresh weight mg). Item: O=C(C(Cl)Cl)N1CCOC12CCCCC2
Data returned: 68

Data request: Moving on to the next compound: Clc1cc(Cl)nc(-c2ccccc2)n1
Data returned: 15

Data request: And then O=C(O)COc1ccc(Cl)c2cccnc12 , what is it?
Data returned: 42

Data request: Then what about the compound O=C(O)C1=NOC(c2ccccc2)(c2ccccc2)C1 ?
Data returned: 38

###

tested on: mutant rice (ML0831265-01493, ATCC deposit PTA-12933, mutation G2096S); test: Tank mixes of safeners with propaquizafop or quizalofop: regrowth of mutant rice; format: in vivo; details: tank mix with quizalofop 40 g/ha, safener 100 g/ha
For each record, write down the corresponding Regrowth (fresh weight mg).

Data request: Enter reported Regrowth (fresh weight mg) observed with mutant rice (ML0831265-01493, ATCC deposit PTA-12933, mutation G2096S) for O=C(O)C1=NOC(c2ccccc2)(c2ccccc2)C1
Data returned: 462 mg

Data request: Next record, please: O=C(O)COc1ccc(Cl)c2cccnc12
Data returned: 398 mg

Data request: # iterate: O=C(C(Cl)Cl)N1CCOC12CCCCC2
Data returned: 505 mg

Data request: Moving on to the next compound: Clc1cc(Cl)nc(-c2ccccc2)n1
Data returned: 55 mg

###

System: ACCase inhibitor resistant rice seeds (ML0831265-01493 (ATCC deposit PTA-12933, mutation G2096S))
Test: Safener seed treatment with propaquizafop or quizalofop: regrowth of resistant rice
Format: in vivo
Details: quizalofop, safener seed treatment 1 g/kg of seed
Text: Seeds of a proprietary ACCase resistant rice variety, i.e. RTA1, was used. RTA1, ML0831265-01493 (ATCC deposit PTA-12933, mutation G2096S) variety rice seeds were supplied by RiceTec. RTA1 rice cultivar contains a single mutation in the ACCase gene that confer ACCase resistance. The mutation makes the enzyme insensitive to quizalofop. Mutant rice seeds were planted in commercial greenhouse soil mix in 10×10×10 cm plastic pots. […]
So basically: is Regrowth (fresh weight mg) under 200 mg? Then y. Not under? Then n.

Data request: Lab note: confirm whether the reported Regrowth (fresh weight mg) for this molecule is below 200 mg, equality not counting. molecule: O=C(O)COc1ccc(Cl)c2cccnc12
Data returned: y

Data request: Now this one: CC1COc2ccccc2N1C(=O)C(Cl)Cl (centres unmarked)
Data returned: y

Data request: Now consider Clc1cc(Cl)nc(-c2ccccc2)n1 .
Data returned: y

Data request: How about O=C(C(Cl)Cl)N1CCOC12CCCCC2 ?
Data returned: n

Data request: Would you mind doing O=C(O)C1=NOC(c2ccccc2)(c2ccccc2)C1 as well?
Data returned: y

###

tested on: ACCase inhibitor resistant rice seeds (ML0831265-01493 (ATCC deposit PTA-12933, mutation G2096S)); assay: Safener seed treatment with propaquizafop or quizalofop: regrowth of resistant rice; assay type: in vivo; conditions: quizalofop, safener seed treatment 0.5 g/kg of seed
measured.metric: Regrowth (fresh weight mg)
Quick note: give the figure in mg, leave out the unit.

Data request: So what does the record say about Regrowth (fresh weight mg) for O=C(C(Cl)Cl)N1CCOC12CCCCC2 [AD-67] ?
Data returned: 233

Data request: Further, for CC1COc2ccccc2N1C(=O)C(Cl)Cl (centres unmarked) [Benzacor, benoxacor] ?
Data returned: 90

Data request: Follow-up entry: O=C(O)C1=NOC(c2ccccc2)(c2ccccc2)C1 [Isoxadifen, isoxadifen]
Data returned: 165

Data request: What about this compound? Clc1cc(Cl)nc(-c2ccccc2)n1 [Fenclorim, fenclorim]
Data returned: 163

Data request: Also check O=C(O)COc1ccc(Cl)c2cccnc12 [Cloquinoce, cloquintocet]
Data returned: 143

###

test system: mutant rice (ML0831265-01493, ATCC deposit PTA-12933, mutation G2096S); assay: Tank mixes of safeners with propaquizafop or quizalofop: regrowth of mutant rice; assay type: in vivo; settings: tank mix with propaquizafop 50 g/ha, safener 50 g/ha
measured.metric: Regrowth (fresh weight mg)
Provide only the numeric value, understood in mg.

Data request: Look at this compound and give its reported Regrowth (fresh weight mg). O=C(O)COc1ccc(Cl)c2cccnc12 [Cloquinoce, cloquintocet]
Data returned: 158

Data request: Please do the same for O=C(O)C1=NOC(c2ccccc2)(c2ccccc2)C1 [Isoxadifen, isoxadifen] as well.
Data returned: 310

Data request: Ok, now O=C(C(Cl)Cl)N1CCOC12CCCCC2 [AD-67]
Data returned: 288

Data request: What about this compound? Clc1cc(Cl)nc(-c2ccccc2)n1 [Fenclorim, fenclorim]
Data returned: 15
